Cited source: patent US11046649B2

Target: IDO1 (Homo sapiens)
Construct: endogenous in cells; host or cells: HeLa cells (ATCC), IDO1 induced with 10 ng/mL IFNgamma
Assay: IDO1 cell-based assay
Conditions: HeLa cells, 10 ng/mL IFNgamma, 24 hours with test compound; N-Formyl Kynurenine and L-tryptophan quantified by RFMS
OBSERVABLE: pIC50
Remember the convention: pIC50 equals -log10 of concentration in molar.

1) C[C@H](C(=O)Nc1ccc(-c2ccc(F)cn2)cc1)[C@H]1[C@@H]2C[C@@H](n3cnc4cc(F)c(F)cc43)C[C@@H]21 [Example 85] = 5.72
2) COCC(=O)NC12CC(NC(=O)C(C)[C@H]3[C@@H]4C[C@@H](Oc5ccnc6ccc(F)cc56)C[C@@H]43)(C1)C2 (stereo partly drawn) [Example 132] = 6.29
3) CC(C(=O)Nc1ccc(C(F)(F)F)cn1)[C@H]1[C@@H]2C[C@@H](n3cnc4cc(F)c(F)cc43)C[C@@H]21 (stereo partly drawn) [Example 18] = 8.32
4) CC(C(=O)NCC(F)(F)F)[C@H]1[C@@H]2C[C@@H](n3cnc4cc(F)c(F)cc43)C[C@@H]21 (stereo partly drawn) [Example 44] = 5.17

**Q:** Give IDO1 (Homo sapiens) pIC50 for the following molecule: Cc1nc(NC(=O)C(C)[C@H]2[C@@H]3C[C@@H](n4cnc5cc(F)c(F)cc54)C[C@@H]32)ccc1C#N (stereo partly drawn) [Example 46]
**A:** 7.38

**Q:** Fetch value of pIC50 on IDO1 (Homo sapiens) for CC(C(=O)NC12CC(NC(=O)CO)(C1)C2)[C@H]1[C@@H]2C[C@@H](Oc3ccnc4ccc(F)cc34)C[C@@H]21 (stereo partly drawn) [Example 129] .
**A:** 6.22

###

Molecular target: IDO1 (Homo sapiens, UniProt P14902)
Construct: endogenous in cells
Sequence (P14902 whole entry): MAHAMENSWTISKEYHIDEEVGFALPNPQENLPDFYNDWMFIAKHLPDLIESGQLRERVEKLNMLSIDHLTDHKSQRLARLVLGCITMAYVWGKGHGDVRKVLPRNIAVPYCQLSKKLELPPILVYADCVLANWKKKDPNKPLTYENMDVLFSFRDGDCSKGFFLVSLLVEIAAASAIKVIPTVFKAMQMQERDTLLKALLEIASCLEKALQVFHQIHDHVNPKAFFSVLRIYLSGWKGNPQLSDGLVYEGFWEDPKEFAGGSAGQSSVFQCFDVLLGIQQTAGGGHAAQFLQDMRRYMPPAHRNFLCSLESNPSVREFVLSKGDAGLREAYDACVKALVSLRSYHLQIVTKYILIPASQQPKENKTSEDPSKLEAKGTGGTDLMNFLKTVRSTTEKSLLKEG
Assay: IDO1 cell-based assay
Conditions: HeLa cells, 10 ng/mL IFNgamma, 24 hours with test compound; N-Formyl Kynurenine and L-tryptophan quantified by RFMS
Overview of reported pIC50 across a group of compounds:
// returns pIC50 (minus log10 of molar concentration), number only

1) CC(C(=O)NC12CC(F)(C1)C2)[C@H]1[C@@H]2C[C@@H](n3cnc4cc(F)c(F)cc43)C[C@@H]21 (stereo partly shown) = 5.60
2) Cc1nnc(-c2ccc(NC(=O)[C@@H](C)[C@H]3[C@@H]4C[C@@H](n5cnc6cc(F)c(F)cc65)C[C@@H]43)cc2)s1 = 6.62
3) CC(C(=O)NC1CCN(C(=O)OC(C)(C)C)CC1)[C@H]1[C@@H]2C[C@@H](Oc3ccnc4ccc(F)cc34)C[C@@H]21 (stereo partly shown) = 5.96
4) CC(C(=O)NCCC(F)(F)F)[C@H]1[C@@H]2C[C@@H](n3cnc4cc(F)c(F)cc43)C[C@@H]21 (stereo partly shown) = 6.18
5) C[C@H](C(=O)Nc1ccc(-c2ccc(F)cc2)cc1)[C@H]1[C@@H]2C[C@@H](n3cnc4cc(F)c(F)cc43)C[C@@H]21 = 6.48
6) CC(C(=O)NC12CC(C(F)(F)F)(C1)C2)[C@H]1[C@@H]2C[C@@H](n3cnc4cc(F)c(F)cc43)C[C@@H]21 (stereo partly shown) = 6.93

# next compound below
**Q:** Give me measured pIC50, please, for this compound: Cc1ncc(-c2ccc(NC(=O)[C@@H](C)[C@H]3[C@@H]4C[C@@H](n5cnc6cc(F)c(F)cc65)C[C@@H]43)cc2)cn1
**A:** 5.94

###

Biological target: IDO1 (Homo sapiens)
Construct: endogenous in cells
Test: IDO1 cell-based assay
Details: HeLa cells, 10 ng/mL IFNgamma, 24 hours with test compound; N-Formyl Kynurenine and L-tryptophan quantified by RFMS
Measured pIC50 of individual entries
Reminder that pIC50 means the negative base-10 logarithm of the concentration expressed in mol/L.

1. CC(C(=O)Nc1cc2ccccn2n1)[C@H]1[C@@H]2C[C@@H](Oc3ccnc4ccc(F)cc34)C[C@@H]21 (stereo partly drawn) = 8.52
2. CC(C(=O)Nc1nc2c(Br)cc(Cl)cc2s1)[C@H]1[C@@H]2C[C@@H](Oc3ccnc4ccc(F)cc34)C[C@@H]21 (stereo partly drawn) = 6.64

// below: pIC50 requested for another compound
**Q:** Using known records, supply pIC50 for CC(C(=O)Nc1ccc(C2CC2)nc1)[C@H]1[C@@H]2C[C@@H](n3cnc4cc(F)c(F)cc43)C[C@@H]21 (stereo partly drawn)
**A:** 8.24

###

Molecular target: IDO1 (Homo sapiens)
Construct: endogenous in cells
Assay: IDO1 cell-based assay
Conditions: HeLa cells, 10 ng/mL IFNgamma, 24 hours with test compound; N-Formyl Kynurenine and L-tryptophan quantified by RFMS
Recorded IC50 for the following compounds
Numeric only. Scale: nM

// known answers, use as guide
1) N#Cc1ccc(NC(=O)C(C2CC2)[C@H]2[C@@H]3C[C@@H](Oc4ccnc5ccc(F)cc45)C[C@@H]32)nn1 (stereo partly drawn) = 8.41
2) CC(C(=O)Nc1cc(C(F)(F)F)nn1C)[C@H]1[C@@H]2C[C@@H](n3cnc4cc(F)c(F)cc43)C[C@@H]21 (stereo partly drawn) = 275

The record that follows has no IC50 shown yet.
**Q:** Identify IC50 associated with the compound CCC(C(=O)Nc1ccc(C#N)nn1)[C@H]1[C@@H]2C[C@@H](Oc3ccnc4ccc(F)cc34)C[C@@H]21 (stereo partly drawn)
**A:** 5.49

###

# key: entry, value: IC50
Target: IDO1 (Homo sapiens)
Construct: endogenous in cells; host or cells: HeLa cells (ATCC), IDO1 induced with 10 ng/mL IFNgamma
Assay: IDO1 cell-based assay
Details: HeLa cells, 10 ng/mL IFNgamma, 24 hours with test compound; N-Formyl Kynurenine and L-tryptophan quantified by RFMS
I'd appreciate it if you wrote the number followed by its unit.

Example entries begin here.
1) CC(C(=O)Nc1cnn(-c2ccccc2)c1)[C@H]1[C@@H]2C[C@@H](Oc3ccnc4ccc(F)cc34)C[C@@H]21 (stereo partly drawn) = 2.77 nM
2) CC(C(=O)Nc1ccn(CC(F)(F)F)n1)[C@H]1[C@@H]2C[C@@H](Oc3ccnc4ccc(F)cc34)C[C@@H]21 (stereo partly drawn) = 17.9 nM
3) CC(C(=O)Nc1ccc(C#N)nn1)[C@H]1[C@@H]2C[C@@H](Oc3ccnc4ccc(F)cc34)C[C@@H]21 (stereo partly drawn) = 4.6 nM
4) CC(C(=O)NC1CC(F)(F)C1)[C@H]1[C@@H]2C[C@@H](n3cnc4cc(F)c(F)cc43)C[C@@H]21 (stereo partly drawn) = 1640 nM

**Q:** Return IC50 (reported value) for this compound: CC(C(=O)Nc1nc[nH]n1)[C@H]1[C@@H]2C[C@@H](Oc3ccnc4ccc(F)cc34)C[C@@H]21 (stereo partly drawn)
**A:** 111 nM

**Q:** Give IC50 for CC(C(=O)Nc1nc2ccccc2[nH]1)[C@H]1[C@@H]2C[C@@H](Oc3ccnc4ccc(F)cc34)C[C@@H]21 (stereo partly drawn)
**A:** 9.2 nM

###

Molecular target: IDO1 (Homo sapiens, UniProt P14902)
Construct: endogenous in cells
Assay: IDO1 cell-based assay
Details: HeLa cells, 10 ng/mL IFNgamma, 24 hours with test compound; N-Formyl Kynurenine and L-tryptophan quantified by RFMS
OBSERVABLE: IC50 (nM)
Kindly answer with a numeric value in nM, unit omitted.

1. CC(C(=O)NC12CC(CO)(C1)C2)[C@H]1[C@@H]2C[C@@H](Oc3ccnc4ccc(F)cc34)C[C@@H]21 (some centres unmarked) = 468

**Q:** Consider the compound COCC12CC(NC(=O)C(C)[C@H]3[C@@H]4C[C@@H](Oc5ccnc6ccc(F)cc56)C[C@@H]43)(C1)C2 (some centres unmarked) . State its measured IC50.
**A:** 55

**Q:** Write down IC50 measured for item CC(C(=O)Nc1cnn(C)c1)[C@H]1[C@@H]2C[C@@H](n3cnc4cc(F)c(F)cc43)C[C@@H]21 (some centres unmarked)
**A:** 141

**Q:** Tell us which IC50 value is on record for C[C@H](C(=O)Nc1ccc(-c2ccc(C#N)nc2)cc1)[C@H]1[C@@H]2C[C@@H](n3cnc4cc(F)c(F)cc43)C[C@@H]21
**A:** 878

**Q:** Note IC50 for the compound shown: CCC(C(=O)Nc1ccc(-n2cncn2)cn1)[C@H]1[C@@H]2C[C@@H](Oc3ccnc4ccc(F)cc34)C[C@@H]21 (some centres unmarked)
**A:** 6.9

###

Target: IDO1 (Homo sapiens)
Construct: endogenous in cells
Assay: IDO1 cell-based assay
Details: HeLa cells, 10 ng/mL IFNgamma, 24 hours with test compound; N-Formyl Kynurenine and L-tryptophan quantified by RFMS
just bin them by IC50: low value: < 0.2 µM; medium value: ≥ 0.2 µM and < 0.6 µM; high value: ≥ 0.6 µM

A selection of reference data follows.
1) C[C@H](C(=O)Nc1ccc(-c2cnn(C)c2)cc1)[C@H]1[C@@H]2C[C@@H](n3cnc4cc(F)c(F)cc43)C[C@@H]21 = low value
2) C[C@H](C(=O)Nc1ccc(-c2ccc(C#N)cn2)cc1)[C@H]1[C@@H]2C[C@@H](n3cnc4cc(F)c(F)cc43)C[C@@H]21 = high value
3) Cc1nnc(-c2ccc(NC(=O)[C@@H](C)[C@H]3[C@@H]4C[C@@H](n5cnc6cc(F)c(F)cc65)C[C@@H]43)cc2)o1 = high value
4) CC(C(=O)NC1CC(F)C1)[C@H]1[C@@H]2C[C@@H](n3cnc4cc(F)c(F)cc43)C[C@@H]21 (stereo partly shown) = high value
5) CC(C(=O)NC12CC(N)(C1)C2)[C@H]1[C@@H]2C[C@@H](Oc3ccnc4ccc(F)cc34)C[C@@H]21 (stereo partly shown) = high value

**Q:** Exercise: read the entry COc1ccc(NC(=O)C(C)[C@H]2[C@@H]3C[C@@H](n4cnc5cc(F)c(F)cc54)C[C@@H]32)nc1 (stereo partly shown) and state which class it falls under.
**A:** low value

**Q:** // return the class label for CC(=O)NC12CC(NC(=O)C(C)[C@H]3[C@@H]4C[C@@H](Oc5ccnc6ccc(F)cc56)C[C@@H]43)(C1)C2 (stereo partly shown)
**A:** medium value

**Q:** // return the class label for CC(C(=O)NC12CC(c3ccc(F)cc3)(C1)C2)[C@H]1[C@@H]2C[C@@H](n3cnc4cc(F)c(F)cc43)C[C@@H]21 (stereo partly shown)
**A:** low value

**Q:** Which bin, given its IC50, does N#Cc1ccc(NC(=O)C(C2CC2)[C@H]2[C@@H]3C[C@@H](Oc4ccnc5ccc(F)cc45)C[C@@H]32)nc1 (stereo partly shown) occupy?
**A:** low value
